- Tested on: Brassica juncea
- Experiment description: Post-emergence herbicidal activity against Brassica juncea assessed as growth inhibition at emulsified concentrate of 150 g/ai ha after 15 days by greenhouse test
- Type: functional
Field: inhibition (INH). Provide a value for each of the compounds that follow.
Give bare numbers, in %.

| Compound | Endpoint name | Display unit | Experimental value |
| --- | --- | --- | --- |
| COC(=O)CSc1nc2cc(-n3nc(C(C)(C)C)oc3=O)c(Cl)cc2s1 | inhibition (INH) | % | 0 |
| CCOC(=O)C(C)Sc1nc2cc(-n3nc(C(C)(C)C)oc3=O)c(Cl)cc2s1 (stereo not given) | inhibition (INH) | % | 50 |
| CC(C)(C)c1nn(-c2cc3nc(SCC=C(Cl)Cl)sc3cc2F)c(=O)o1 | inhibition (INH) | % | 70 |
| CCOC(=O)CCCSc1nc2cc(-n3nc(C(C)(C)C)oc3=O)c(Cl)cc2s1 | inhibition (INH) | % | 0 |
| CCOC(=O)CSc1nc2cc(-n3nc(C(C)(C)C)oc3=O)c(F)cc2s1 | inhibition (INH) | % | 50 |
| CCOC(=O)CCSc1nc2cc(-n3nc(C(C)(C)C)oc3=O)c(F)cc2s1 | inhibition (INH) | % | 60 |
| CCCOC(=O)CSc1nc2cc(-n3nc(C(C)(C)C)oc3=O)c(Cl)cc2s1 | inhibition (INH) | % | 0 |
| C=CCSc1nc2cc(-n3nc(C(C)(C)C)oc3=O)c(F)cc2s1 | inhibition (INH) | % | 60 |
| CCOC(=O)Sc1nc2cc(-n3nc(C(C)(C)C)oc3=O)c(Cl)cc2s1 | inhibition (INH) | % | 70 |

Now consider the entry below.
# query: inhibition (INH) of entry CCOC(=O)C(C)Sc1nc2cc(-n3nc(C(C)(C)C)oc3=O)c(Br)cc2s1 (stereo not given)
0

* * *

- System: Cyperus iria
- Experiment description: Post-emergence herbicidal activity against Cyperus iria assessed as growth inhibition at emulsified concentrate of 150 g/ai ha after 15 days by greenhouse test
- Format: functional
Please respond with reported inhibition (INH) for every item in the list.
Numbers only, in %.

These recorded examples may help you get a feel for the data.
| Compound | Endpoint name | Experimental value |
| --- | --- | --- |
| CC(C)OC(=O)CSc1nc2cc(-n3nc(C(C)(C)C)oc3=O)c(F)cc2s1 | inhibition (INH) | 60 |
| CCOC(=O)C(C)Sc1nc2cc(-n3nc(C(C)(C)C)oc3=O)c(F)cc2s1 (centres undefined) | inhibition (INH) | 100 |
| CCOC(=O)CCCSc1nc2cc(-n3nc(C(C)(C)C)oc3=O)c(F)cc2s1 | inhibition (INH) | 70 |

Look up inhibition (INH): COC(=O)CSc1nc2cc(-n3nc(C(C)(C)C)oc3=O)c(Br)cc2s1
50

* * *

Provide the recorded Ki for the entries that follow.
- Target entity: Protoporphyrinogen oxidase (Homo sapiens)
- Sequence (P50336 whole entry): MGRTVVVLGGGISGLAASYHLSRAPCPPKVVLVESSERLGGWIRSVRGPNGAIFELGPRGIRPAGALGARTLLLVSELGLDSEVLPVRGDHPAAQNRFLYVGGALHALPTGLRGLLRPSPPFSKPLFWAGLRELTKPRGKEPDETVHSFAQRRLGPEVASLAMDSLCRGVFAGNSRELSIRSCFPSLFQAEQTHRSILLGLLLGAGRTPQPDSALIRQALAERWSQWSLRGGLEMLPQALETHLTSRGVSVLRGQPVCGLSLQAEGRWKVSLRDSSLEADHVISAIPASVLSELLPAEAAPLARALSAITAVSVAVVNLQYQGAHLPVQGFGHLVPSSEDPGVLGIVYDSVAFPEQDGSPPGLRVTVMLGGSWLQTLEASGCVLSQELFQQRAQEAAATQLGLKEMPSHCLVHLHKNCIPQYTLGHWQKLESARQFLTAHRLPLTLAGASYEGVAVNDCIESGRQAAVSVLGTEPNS
- Experiment description: Inhibition of Homo sapiens (human) recombinant protoporphyrinogen oxidase expressed in Escherichia coli JM109 assessed as oxidation of protoporphyrinogen IX substrate by fluorescence assay
Answers are plain numbers, in µM.

Please review the following examples before continuing.
| Compound | Endpoint name | Experimental value |
| --- | --- | --- |
| C=CCSc1nc2cc(-n3nc(C(C)(C)C)oc3=O)c(Cl)cc2s1 | Ki | 3.11 |
| CCOC(=O)CCCSc1nc2cc(-n3nc(C(C)(C)C)oc3=O)c(F)cc2s1 | Ki | 0.7 |
| CCOC(=O)CSc1nc2cc(-n3nc(C(C)(C)C)oc3=O)c(F)cc2s1 | Ki | 1.58 |
| CC(C)OC(=O)CSc1nc2cc(-n3nc(C(C)(C)C)oc3=O)c(Cl)cc2s1 | Ki | 2.17 |
| CC(C)OC(=O)CSc1nc2cc(-n3nc(C(C)(C)C)oc3=O)c(F)cc2s1 | Ki | 1.17 |

Record Ki for all entries; do not skip any.
1. CCOC(=O)CCSc1nc2cc(-n3nc(C(C)(C)C)oc3=O)c(Cl)cc2s1
2. COC(=O)CSc1nc2cc(-n3nc(C(C)(C)C)oc3=O)c(F)cc2s1
3. CCOC(=O)CCCSc1nc2cc(-n3nc(C(C)(C)C)oc3=O)c(Cl)cc2s1
4. CC(C)(C)OC(=O)CSc1nc2cc(-n3nc(C(C)(C)C)oc3=O)c(F)cc2s1
5. CCCOC(=O)CSc1nc2cc(-n3nc(C(C)(C)C)oc3=O)c(F)cc2s1
6. CC(C)(C)OC(=O)CSc1nc2cc(-n3nc(C(C)(C)C)oc3=O)c(Cl)cc2s1
7. CCOC(=O)CCCSc1nc2cc(-n3nc(C(C)(C)C)oc3=O)c(Br)cc2s1

1. 0.25
2. 3.99
3. 2.02
4. 1.59
5. 0.7
6. 0.84
7. 5.83

Provide Ki values for the following items, in order.
1. CCOC(=O)C(C)Sc1nc2cc(-n3nc(C(C)(C)C)oc3=O)c(Br)cc2s1 (centres undefined)
2. COC(=O)/C=C/CSc1nc2cc(-n3nc(C(C)(C)C)oc3=O)c(F)cc2s1
3. CC(C)(C)c1nn(-c2cc3nc(SCC=C(Cl)Cl)sc3cc2F)c(=O)o1
4. CCCOC(=O)CSc1nc2cc(-n3nc(C(C)(C)C)oc3=O)c(Cl)cc2s1

1. 8.13
2. 7.48
3. 10.9
4. 0.98

Dear colleague, could you please provide Ki for the compounds listed below?
1. CCOC(=O)Sc1nc2cc(-n3nc(C(C)(C)C)oc3=O)c(F)cc2s1
2. COC(=O)Sc1nc2cc(-n3nc(C(C)(C)C)oc3=O)c(F)cc2s1
3. CCOC(=O)CSc1nc2cc(-n3nc(C(C)(C)C)oc3=O)c(Cl)cc2s1

1: 1.3; 2: 0.72; 3: 1.01
